ASSAY_INFO: Randomized bioavailability study of 17-HPC, SC injection in triceps area (1.1 or 1.2 mL) vs IM injection (1.0 mL)
Assay type: in vivo, human
PARTICULARS: female, human, plasma; SC 1.2 mL (300 mg) triceps area, healthy postmenopausal women; read-out: Cmax, geometric mean (geometric CV)
READOUT_NAME: Cmax
Please answer using a numeric value trailed by its unit.

Query: Any idea what Cmax was measured for CCCCCC(=O)O[C@]1(C(C)=O)CC[C@H]2[C@@H]3CCC4=CC(=O)CC[C@]4(C)[C@H]3CC[C@@]21C [17-HPC, 17-alpha-hydroxyprogesterone caproate] ?
Response: 8.13 ng/mL
